target: Peroxisome proliferator-activated receptor gamma (Homo sapiens); type: functional
Sequence (P37231 whole entry): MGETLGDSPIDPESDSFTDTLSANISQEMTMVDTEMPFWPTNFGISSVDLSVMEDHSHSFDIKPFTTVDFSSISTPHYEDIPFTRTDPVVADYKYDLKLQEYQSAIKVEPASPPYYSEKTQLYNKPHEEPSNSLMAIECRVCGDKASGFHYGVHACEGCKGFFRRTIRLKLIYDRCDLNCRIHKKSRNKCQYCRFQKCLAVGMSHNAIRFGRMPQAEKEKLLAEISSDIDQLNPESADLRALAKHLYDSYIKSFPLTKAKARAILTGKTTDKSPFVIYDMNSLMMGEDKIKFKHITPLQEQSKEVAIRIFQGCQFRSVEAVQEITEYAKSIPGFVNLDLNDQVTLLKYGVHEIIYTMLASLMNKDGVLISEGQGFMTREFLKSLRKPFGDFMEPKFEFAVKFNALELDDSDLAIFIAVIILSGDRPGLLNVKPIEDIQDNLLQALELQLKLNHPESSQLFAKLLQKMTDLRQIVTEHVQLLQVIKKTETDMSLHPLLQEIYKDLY
ENDPOINT_LABEL: EC50 (µM)

[
  {
    "SAMPLE_SMILES": "Cc1cc(Sc2cc(C#CCN3CCOCC3)nc(C#Cc3ccc(C(F)(F)F)cc3)c2)ccc1OCC(=O)O",
    "RESULT_NUMBER": 5.5
  }
]

---

Molecular target: Peroxisome proliferator-activated receptor delta (Homo sapiens, UniProt Q03181)
Sequence (Q03181 whole entry): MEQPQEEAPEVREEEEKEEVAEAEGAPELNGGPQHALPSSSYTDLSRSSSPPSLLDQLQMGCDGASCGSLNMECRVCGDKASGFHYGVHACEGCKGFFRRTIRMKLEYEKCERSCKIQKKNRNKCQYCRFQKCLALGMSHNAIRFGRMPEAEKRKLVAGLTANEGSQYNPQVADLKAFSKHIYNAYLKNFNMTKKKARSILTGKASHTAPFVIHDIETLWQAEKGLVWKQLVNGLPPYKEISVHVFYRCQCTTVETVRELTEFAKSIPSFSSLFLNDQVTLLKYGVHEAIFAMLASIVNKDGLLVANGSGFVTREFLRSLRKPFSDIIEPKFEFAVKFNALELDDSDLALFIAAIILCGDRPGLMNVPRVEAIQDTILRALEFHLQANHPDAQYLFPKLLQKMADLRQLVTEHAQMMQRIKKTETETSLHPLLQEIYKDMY
pEC50: −log10 of the molar value.
ENDPOINT_LABEL: pEC50

[
  {
    "SAMPLE_SMILES": "O=C(O)COc1ccc(Sc2cc(C#CCN3CCOCC3)nc(C#Cc3ccc(C(F)(F)F)cc3)c2)c2c1CCC2",
    "ENDPOINT_LABEL": "pEC50",
    "RESULT_NUMBER": 6.89
  },
  {
    "SAMPLE_SMILES": "Cc1cc(Sc2cc(C#CCN3CCOCC3)nc(C#Cc3ccc(C(F)(F)F)cc3)c2)ccc1OCC(=O)O",
    "ENDPOINT_LABEL": "pEC50",
    "RESULT_NUMBER": 7.30
  }
]
